System: A549
Protocol Summary: Antiproliferative activity against human A549 cells measured after 48 hrs by MTT assay
Assay type: functional, cell-based
Test Context: A549, 48 h
Please respond with reported log10(IC50) for every item in the list.
Friendly reminder: values = log10 of IC50, unit µM.

COc1ccc(-c2ccc3nnc(-c4cc(OC)c(OC)c(OC)c4)n3c2)cc1OC ... 1.94
COc1cc(-c2nnc3ccc(-c4ccc(C)cc4)cn23)cc(OC)c1OC ... 0.80
COc1ccccc1-c1ccc2nnc(-c3cc(OC)c(OC)c(OC)c3)n2c1 ... 0.97
COc1cc(-c2nnc3ccc(-c4ccc(F)cc4)cn23)cc(OC)c1OC ... 1.90
COc1ccc(-c2ccc3nnc(-c4cc(OC)c(OC)c(OC)c4)n3c2)cc1O ... 1.25

Would you be so kind as to report log10(IC50) for each listed record?
1. COc1ccc(-c2ccc3nnc(-c4cc(OC)c(OC)c(OC)c4)n3c2)cc1[N+](=O)[O-]
2. COc1ccc(-c2ccc3nnc(-c4cc(OC)c(OC)c(OC)c4)n3c2)cc1N

Result:
1: 1.77; 2: 1.02

* * *

Exercise: state measured IC50 for each of the compounds provided.
System: T47D
Protocol Summary: Antiproliferative activity against human T47D cells measured after 48 hrs by MTT assay
Format: functional, cell-based
Answers are plain numbers, in µM.

// known answers, use as guide
COc1ccc(-c2ccc3nnc(-c4cc(OC)c(OC)c(OC)c4)n3c2)cc1N ... 27.9
COc1cc(-c2nnc3ccc(-c4ccc(F)cc4)cn23)cc(OC)c1OC ... 76

# ---- query compound ----
Lab note: measured IC50 of `COc1ccccc1-c1ccc2nnc(-c3cc(OC)c(OC)c(OC)c3)n2c1` was 31.5

* * *

Task for the reader: assign each of the following compounds its reported inhibition.
Species: Sus scrofa
Protocol Summary: Inhibition of pig brain tubulin polymerization at 10 uM measured at 1 min interval for 20 mins by spectrophotometric method relative to control
Don't forget the unit after the number, please.

COc1ccc(-c2ccc3nnc(-c4cc(OC)c(OC)c(OC)c4)n3c2)cc1N ... 81%
COc1ccc(-c2ccc3nnc(-c4cc(OC)c(OC)c(OC)c4)n3c2)cc1O ... 14%
COc1ccc(/C=C\c2cc(OC)c(OC)c(OC)c2)cc1O ... 79%

Could I get inhibition for every one of these entries?
1. COc1cc(-c2nnc3ccc(-c4ccc(C)cc4)cn23)cc(OC)c1OC
2. COc1cc(-c2nnc3ccc(-c4ccc(F)cc4)cn23)cc(OC)c1OC

Result:
77%
18%

Batch: inhibition for all items listed.
1. COc1ccccc1-c1ccc2nnc(-c3cc(OC)c(OC)c(OC)c3)n2c1
2. COc1ccc(-c2ccc3nnc(-c4cc(OC)c(OC)c(OC)c4)n3c2)cc1[N+](=O)[O-]

Result:
1: 16%; 2: 36%

Reported inhibition of `COc1ccc(-c2ccc3nnc(-c4cc(OC)c(OC)c(OC)c4)n3c2)cc1OC` : 68%

* * *

Tested on: T47D
Protocol Summary: Antiproliferative activity against human T47D cells measured after 48 hrs by MTT assay
Type: functional, cell-based
pIC50: −log10 of the molar value.
Property Measured: pIC50

COc1ccc(-c2ccc3nnc(-c4cc(OC)c(OC)c(OC)c4)n3c2)cc1OC ... < 4.00
COc1ccc(-c2ccc3nnc(-c4cc(OC)c(OC)c(OC)c4)n3c2)cc1O ... < 4.00
COc1cc(-c2nnc3ccc(-c4ccc(C)cc4)cn23)cc(OC)c1OC ... < 4.00

Next compound, please.
Reported pIC50 of `COc1ccc(-c2ccc3nnc(-c4cc(OC)c(OC)c(OC)c4)n3c2)cc1[N+](=O)[O-]` : < 4.00
